measurement.target: human DGKζ (Homo sapiens, UniProt Q13574)
Construct: made in house; host or cells: Sf9 insect cells, baculovirus
Sequence (Q13574 with tags, fused parts or gaps): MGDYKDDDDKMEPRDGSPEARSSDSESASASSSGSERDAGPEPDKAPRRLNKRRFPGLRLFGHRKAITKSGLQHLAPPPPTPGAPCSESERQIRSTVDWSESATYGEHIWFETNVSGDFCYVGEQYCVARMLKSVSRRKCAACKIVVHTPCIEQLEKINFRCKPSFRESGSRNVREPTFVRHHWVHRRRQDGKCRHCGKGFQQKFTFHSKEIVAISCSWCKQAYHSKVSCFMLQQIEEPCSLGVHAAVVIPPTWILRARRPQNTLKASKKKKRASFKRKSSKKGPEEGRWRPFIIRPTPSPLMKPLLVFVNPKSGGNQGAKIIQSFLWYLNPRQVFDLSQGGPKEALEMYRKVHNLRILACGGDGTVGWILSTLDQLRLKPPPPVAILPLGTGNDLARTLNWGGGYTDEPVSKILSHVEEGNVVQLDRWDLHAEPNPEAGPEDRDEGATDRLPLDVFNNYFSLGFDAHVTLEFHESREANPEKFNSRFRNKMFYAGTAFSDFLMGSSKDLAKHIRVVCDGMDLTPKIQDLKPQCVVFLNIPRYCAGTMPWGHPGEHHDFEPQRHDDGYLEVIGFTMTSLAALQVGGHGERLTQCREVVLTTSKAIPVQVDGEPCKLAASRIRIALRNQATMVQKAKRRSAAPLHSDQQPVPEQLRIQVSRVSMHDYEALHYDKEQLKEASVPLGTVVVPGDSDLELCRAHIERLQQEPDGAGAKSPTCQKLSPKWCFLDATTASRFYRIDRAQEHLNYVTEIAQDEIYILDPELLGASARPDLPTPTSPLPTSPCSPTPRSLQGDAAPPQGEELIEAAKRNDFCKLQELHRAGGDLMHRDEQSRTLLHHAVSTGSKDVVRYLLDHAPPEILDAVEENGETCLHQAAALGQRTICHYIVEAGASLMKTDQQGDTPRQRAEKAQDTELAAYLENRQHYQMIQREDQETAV
assay.overview: Human DGKζ kinase activity inhibition assay (ADP-Glo)
Format: biochemical
applied.conditions: example compounds; recombinant full-length human DGKζ, 1,2-dioleoyl-sn-glycerol 7 μM, ATP 55 μM, 20 min at 22° C.; read-out: IC50 values of examples in in vitro human DGKζ kinase activity inhibition assays
Listing: IC50 of selected compounds

compound: CC(C(N)=O)N(c1ccc(F)c(F)c1)c1nc(N)c(C(=O)c2cc(C(=O)NC3CCCC3)no2)s1 (single isomer, unassigned) [Example 46.1]
measurement.target: human DGKζ (Homo sapiens, UniProt Q13574)
IC50 / nM: 27

compound: CC(C(N)=O)N(c1ccc(F)cc1)c1nc(N)c(C(=O)c2cc(-c3ccccc3)no2)s1 (racemic) [Example 3]
measurement.target: human DGKζ (Homo sapiens, UniProt Q13574)
IC50 / nM: 104

compound: CC(C(N)=O)N(c1ccc(F)cc1)c1nc(N)c(C(=O)c2cc(-c3ccncc3)no2)s1 (racemic)
measurement.target: human DGKζ (Homo sapiens, UniProt Q13574)
IC50 / nM: 728

compound: CC(C(N)=O)N(c1ccc(F)cc1)c1nc(N)c(C(=O)c2cc(C(=O)NCCOC(F)(F)F)no2)s1 (racemic)
measurement.target: human DGKζ (Homo sapiens, UniProt Q13574)
IC50 / nM: 97

compound: CC(C(N)=O)N(c1ccc(F)cc1)c1nc(N)c(C(=O)c2nc(C(C)(C)C)no2)s1 (racemic)
measurement.target: human DGKζ (Homo sapiens, UniProt Q13574)
IC50 / nM: 25

compound: CC(C(N)=O)N(c1ccc(F)cc1)c1nc(N)c(C(=O)c2cc(C3CCCC3)no2)s1 (racemic)
measurement.target: human DGKζ (Homo sapiens, UniProt Q13574)
IC50 / nM: 42

compound: CC(C(N)=O)N(c1ccc(F)cc1)c1nc(N)c(C(=O)c2cc(Br)no2)s1 (single isomer, unassigned) [Example 6.1]
measurement.target: human DGKζ (Homo sapiens, UniProt Q13574)
IC50 / nM: 64

====

measurement.target: human DGKζ (Homo sapiens, UniProt Q13574)
Construct: made in house; host or cells: Sf9 insect cells, baculovirus
assay.overview: Human DGKζ kinase activity inhibition assay (ADP-Glo)
Type: biochemical
applied.conditions: example compounds; recombinant full-length human DGKζ, 1,2-dioleoyl-sn-glycerol 7 μM, ATP 55 μM, 20 min at 22° C.; read-out: IC50 values of examples in in vitro human DGKζ kinase activity inhibition assays
Listing: IC50 of selected molecules
observation.type: IC50 (nM)

molecule: CC(C(N)=O)N(c1ccc(F)cc1)c1nc(N)c(C(=O)c2cc(C(=O)N[C@H]3C[C@H](F)C3)no2)s1 (mixture of isomers)
value.unit: nM
obs.value: 146

molecule: CC(C(N)=O)N(c1ccc(F)c(F)c1)c1nc(N)c(C(=O)c2cc(C(=O)NC3(C)CCC3)no2)s1 (single isomer, unassigned) [Example 44.1]
value.unit: nM
obs.value: 19

molecule: CC(C(N)=O)N(c1ccc(F)c(F)c1)c1nc(N)c(C(=O)c2cc(C(=O)NC3(C)CCC3)no2)s1 (racemic) [Example 44]
value.unit: nM
obs.value: 59

Data provenance: patent US20230167103A1
